target-under-test: Bcr-Abl^T315I (Homo sapiens, UniProt P00519+P11274, T315I)
protocol-details: Western blot degradation study in Ba/F3 cells expressed Bcr-Abl^T315I
Format: cell-based
measurement-setup: 100 nmol/L, 24 h treatment, Western blot
Listed compounds paired with reported DR against Ba/F3 Bcr-Abl^T315I (%) 100 nmol/L
Write down the numeric answer in % and omit the unit.

A selection of reference data follows.
Cc1ccc(C(=O)Nc2ccc(CN3CCN(CCOCCC(=O)Nc4cccc5c4C(=O)N(C4CCC(=O)NC4=O)C5=O)CC3)c(C(F)(F)F)c2)cc1C#Cc1cnc2[nH]ncc2c1 (centres unmarked) [7g]: −11.43
Cc1ccc(C(=O)Nc2ccc(CN3CCN(CCOCCOCCC(=O)N[C@H](C(=O)C4C[C@H](O)C[C@H]4C(=O)NCc4ccc(-c5scnc5C)cc4)C(C)(C)C)CC3)c(C(F)(F)F)c2)cc1C#Cc1cnc2[nH]ncc2c1 (some centres unmarked) [7d]: −18.26

Problem: Look up DR against Ba/F3 Bcr-Abl^T315I (%) 100 nmol/L for this compound: Cc1ccc(C(=O)Nc2ccc(CN3CCN(CCOCCOCCC(=O)NC45CC6CC(CC(C6)C4)C5)CC3)c(C(F)(F)F)c2)cc1C#Cc1cnc2[nH]ncc2c1 [7f]
Solution: −5.26

Problem: I'd like to know its DR against Ba/F3 Bcr-Abl^T315I (%) 100 nmol/L. The compound in question is Cc1ccc(C(=O)Nc2ccc(CN3CCN(CCC(=O)Nc4cccc5c4C(=O)N(C4CCC(=O)NC4=O)C5=O)CC3)c(C(F)(F)F)c2)cc1C#Cc1cnc2[nH]ncc2c1 (centres unmarked) [7l]
Solution: −30.35

Problem: Fill blank: measured DR against Ba/F3 Bcr-Abl^T315I (%) 100 nmol/L of the compound Cc1ccc(C(=O)Nc2ccc(CN3CCN(CCOCCOCCC(=O)Nc4cccc5c4C(=O)N(C4CCC(=O)NC4=O)C5=O)CC3)c(C(F)(F)F)c2)cc1C#Cc1cnc2[nH]ncc2c1 (centres unmarked) [compound 7a] is ____.
Solution: −15.35

Problem: I'd like to know its DR against Ba/F3 Bcr-Abl^T315I (%) 100 nmol/L. The compound in question is Cc1ccc(C(=O)Nc2ccc(CN3CCN(CCCCCC(=O)Nc4cccc5c4C(=O)N(C4CCC(=O)NC4=O)C5=O)CC3)c(C(F)(F)F)c2)cc1C#Cc1cnc2[nH]ncc2c1 (centres unmarked) [7n]
Solution: 21.64

Problem: Item Cc1ccc(C(=O)Nc2ccc(CN3CCN(CCOCCOCCOCCOCCOCCC(=O)Nc4cccc5c4C(=O)N(C4CCC(=O)NC4=O)C5=O)CC3)c(C(F)(F)F)c2)cc1C#Cc1cnc2[nH]ncc2c1 (centres unmarked) [7j] has what recorded DR against Ba/F3 Bcr-Abl^T315I (%) 100 nmol/L?
Solution: −23.27

Problem: Param item = Cc1ccc(C(=O)Nc2ccc(CN3CCN(CCCCCCC(=O)Nc4cccc5c4C(=O)N(C4CCC(=O)NC4=O)C5=O)CC3)c(C(F)(F)F)c2)cc1C#Cc1cnc2[nH]ncc2c1 (centres unmarked) [compound 7o] ; retrieve measured DR against Ba/F3 Bcr-Abl^T315I (%) 100 nmol/L.
Solution: 69.89

Problem: Requested read-out: DR against Ba/F3 Bcr-Abl^T315I (%) 100 nmol/L. Entry: Cc1ccc(C(=O)Nc2ccc(CN3CCN(CCCCCCCCCCCCCCC(=O)Nc4cccc5c4C(=O)N(C4CCC(=O)NC4=O)C5=O)CC3)c(C(F)(F)F)c2)cc1C#Cc1cnc2[nH]ncc2c1 (centres unmarked) [7t]
Solution: 13.75

Problem: Form field: reported DR against Ba/F3 Bcr-Abl^T315I (%) 100 nmol/L of Cc1ccc(C(=O)Nc2ccc(CN3CCN(CCOCCOCCOCCOCCOCCOCCC(=O)Nc4cccc5c4C(=O)N(C4CCC(=O)NC4=O)C5=O)CC3)c(C(F)(F)F)c2)cc1C#Cc1cnc2[nH]ncc2c1 (centres unmarked) [7k]
Solution: 19.38

Problem: Which DR against Ba/F3 Bcr-Abl^T315I (%) 100 nmol/L is reported for this compound? Cc1ccc(C(=O)Nc2ccc(CN3CCN(CCCCCCCCCCC(=O)Nc4cccc5c4C(=O)N(C4CCC(=O)NC4=O)C5=O)CC3)c(C(F)(F)F)c2)cc1C#Cc1cnc2[nH]ncc2c1 (centres unmarked) [7q]
Solution: 5.33

----------
# DR against Ba/F3 Bcr-Abl^T315I (%) 300 nmol/L values compiled below
target-under-test: Bcr-Abl^T315I (Homo sapiens, UniProt P00519+P11274, T315I)
protocol-details: Western blot degradation study in Ba/F3 cells expressed Bcr-Abl^T315I
Assay type: cell-based
measurement-setup: 300 nmol/L, 24 h treatment, Western blot
Use % as the unit, but write only the number.

Guide cases for DR against Ba/F3 Bcr-Abl^T315I (%) 300 nmol/L, answers given:
Cc1ccc(C(=O)Nc2ccc(CN3CCN(CCOCCOCCOCCOCCOCCC(=O)Nc4cccc5c4C(=O)N(C4CCC(=O)NC4=O)C5=O)CC3)c(C(F)(F)F)c2)cc1C#Cc1cnc2[nH]ncc2c1 (centres unmarked): 21.17
Cc1ccc(C(=O)Nc2ccc(CN3CCN(CCOCCOCCOc4cccc5c4C(=O)N(C4CCC(=O)NC4=O)C5=O)CC3)c(C(F)(F)F)c2)cc1C#Cc1cnc2[nH]ncc2c1 (centres unmarked): 9.98
Cc1ccc(C(=O)Nc2ccc(CN3CCN(CCOCCOCCNC(=O)[C@H](CC(C)C)NC(=O)[C@@H](O)[C@H](N)Cc4ccccc4)CC3)c(C(F)(F)F)c2)cc1C#Cc1cnc2[nH]ncc2c1: 11.17
Cc1ccc(C(=O)Nc2ccc(CN3CCN(CCOCCC(=O)Nc4cccc5c4C(=O)N(C4CCC(=O)NC4=O)C5=O)CC3)c(C(F)(F)F)c2)cc1C#Cc1cnc2[nH]ncc2c1 (centres unmarked): 28.39

Read the next record carefully.
Problem: Quick check: DR against Ba/F3 Bcr-Abl^T315I (%) 300 nmol/L of Cc1ccc(C(=O)Nc2ccc(CN3CCN(CCOCCOCCOCCOCCOCCOCCC(=O)Nc4cccc5c4C(=O)N(C4CCC(=O)NC4=O)C5=O)CC3)c(C(F)(F)F)c2)cc1C#Cc1cnc2[nH]ncc2c1 (centres unmarked) ?
Solution: 25.53

----------
Test system: Ba/F3 Bcr-Abl^T315I
protocol-details: Antiproliferation cell assay
Format: cell-based
measurement-setup: Mus musculus, BaF3, 72 h, read-out: Cellular inhibition IC50 Ba/F3 Bcr-Abl^T315I
Each entry below carries its recorded IC50.
Provide only the numeric value, understood in nM.

Cc1ccc(C(=O)Nc2ccc(CN3CCN(CCCCCCC(=O)Nc4cccc5c4C(=O)N(C4CCC(=O)NC4=O)C5=O)CC3)c(C(F)(F)F)c2)cc1C#Cc1cnc2[nH]ncc2c1 (centres unmarked): 26.8
Cc1ccc(C(=O)Nc2ccc(CN3CCN(CCOCCOCCC(=O)Nc4cccc5c4C(=O)N(C4CCC(=O)NC4=O)C5=O)CC3)c(C(F)(F)F)c2)cc1C#Cc1cnc2[nH]ncc2c1 (centres unmarked): 83.2
Cc1ccc(C(=O)Nc2ccc(CN3CCN(CCOCCOCCNC(=O)[C@H](CC(C)C)NC(=O)[C@@H](O)[C@H](N)Cc4ccccc4)CC3)c(C(F)(F)F)c2)cc1C#Cc1cnc2[nH]ncc2c1: 2310

Let's switch to this compound now.
Problem: What is its IC50 for Ba/F3 Bcr-Abl^T315I? Entry: Cc1ccc(C(=O)Nc2ccc(CN3CCN(CCCCCCCCC(=O)Nc4cccc5c4C(=O)N(C4CCC(=O)NC4=O)C5=O)CC3)c(C(F)(F)F)c2)cc1C#Cc1cnc2[nH]ncc2c1 (centres unmarked)
Solution: 21.8

----------
target-under-test: Bcr-Abl^T315I (Homo sapiens, UniProt P00519+P11274, T315I)
protocol-details: Western blot degradation study in Ba/F3 cells expressed Bcr-Abl^T315I
Format: cell-based
measurement-setup: 100 nmol/L, 24 h treatment, Western blot
Recorded DR against Ba/F3 Bcr-Abl^T315I (%) 100 nmol/L, one value per entry.
Your answer is read as %, so omit the unit and give the number.

Cc1ccc(C(=O)Nc2ccc(CN3CCN(CCOCCOCCC(=O)Nc4cccc5c4CN(C4CCC(=O)NC4=O)C5=O)CC3)c(C(F)(F)F)c2)cc1C#Cc1cnc2[nH]ncc2c1 (stereo not drawn) [7b]: −9.18
Cc1ccc(C(=O)Nc2ccc(CN3CCN(CCCCCCCCC(=O)Nc4cccc5c4C(=O)N(C4CCC(=O)NC4=O)C5=O)CC3)c(C(F)(F)F)c2)cc1C#Cc1cnc2[nH]ncc2c1 (stereo not drawn) [7p]: 3.61

Problem: Given the entry Cc1ccc(C(=O)Nc2ccc(CN3CCN(CCOCCOCCOCCOCCC(=O)Nc4cccc5c4C(=O)N(C4CCC(=O)NC4=O)C5=O)CC3)c(C(F)(F)F)c2)cc1C#Cc1cnc2[nH]ncc2c1 (stereo not drawn) [7i] , report its measured DR against Ba/F3 Bcr-Abl^T315I (%) 100 nmol/L.
Solution: −22.44
